target: WEE1 (Homo sapiens, UniProt P30291+Q96SW2); construct: C-terminal ePL-tagged (DiscoverX, Fremont, CA) full-length WEE1 expression construct; expressed in transfected cells; host or cells: LentiX-HEK293T (Invitrogen), lentivirally transduced; the cells also over-express GSPT1-GN; assay: WEE1-ePL degradation assay (293T-LentiX, InCELL Hunter luminescence, 4 hr); assay type: cell-based; details: lower limit of fit, % of DMSO control signal remaining; 4 hr
Sequence (P30291 whole entry): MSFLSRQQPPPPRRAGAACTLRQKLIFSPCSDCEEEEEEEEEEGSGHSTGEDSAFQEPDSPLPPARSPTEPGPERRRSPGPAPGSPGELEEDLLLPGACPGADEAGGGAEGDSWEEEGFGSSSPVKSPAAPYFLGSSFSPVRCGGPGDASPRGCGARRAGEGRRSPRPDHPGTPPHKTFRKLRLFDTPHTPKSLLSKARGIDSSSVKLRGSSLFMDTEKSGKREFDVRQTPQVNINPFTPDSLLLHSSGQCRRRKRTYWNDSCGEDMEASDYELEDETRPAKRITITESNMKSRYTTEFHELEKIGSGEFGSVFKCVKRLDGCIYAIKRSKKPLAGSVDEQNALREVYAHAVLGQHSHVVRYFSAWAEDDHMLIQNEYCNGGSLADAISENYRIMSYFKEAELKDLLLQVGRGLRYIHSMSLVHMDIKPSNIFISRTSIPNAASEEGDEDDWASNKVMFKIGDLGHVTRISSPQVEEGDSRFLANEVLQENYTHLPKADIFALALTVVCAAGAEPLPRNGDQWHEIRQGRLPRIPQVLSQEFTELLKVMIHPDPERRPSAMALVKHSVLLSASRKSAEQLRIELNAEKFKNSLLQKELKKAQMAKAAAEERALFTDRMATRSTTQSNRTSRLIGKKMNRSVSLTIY
Sequence (Q96SW2 whole entry): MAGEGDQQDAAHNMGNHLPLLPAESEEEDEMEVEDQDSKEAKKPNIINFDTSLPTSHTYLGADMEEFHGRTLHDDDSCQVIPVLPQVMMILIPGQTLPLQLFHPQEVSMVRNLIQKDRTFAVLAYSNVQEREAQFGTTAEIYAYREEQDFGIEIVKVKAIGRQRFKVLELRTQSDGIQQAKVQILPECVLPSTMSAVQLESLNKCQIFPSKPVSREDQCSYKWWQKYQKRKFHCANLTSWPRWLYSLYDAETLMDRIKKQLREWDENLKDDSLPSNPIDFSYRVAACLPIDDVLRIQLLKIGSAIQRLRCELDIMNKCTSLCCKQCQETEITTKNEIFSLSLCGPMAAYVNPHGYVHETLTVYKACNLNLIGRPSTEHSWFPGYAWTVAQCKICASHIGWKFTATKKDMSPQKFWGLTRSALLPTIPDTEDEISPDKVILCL
Sequence (Q16531 whole entry partner): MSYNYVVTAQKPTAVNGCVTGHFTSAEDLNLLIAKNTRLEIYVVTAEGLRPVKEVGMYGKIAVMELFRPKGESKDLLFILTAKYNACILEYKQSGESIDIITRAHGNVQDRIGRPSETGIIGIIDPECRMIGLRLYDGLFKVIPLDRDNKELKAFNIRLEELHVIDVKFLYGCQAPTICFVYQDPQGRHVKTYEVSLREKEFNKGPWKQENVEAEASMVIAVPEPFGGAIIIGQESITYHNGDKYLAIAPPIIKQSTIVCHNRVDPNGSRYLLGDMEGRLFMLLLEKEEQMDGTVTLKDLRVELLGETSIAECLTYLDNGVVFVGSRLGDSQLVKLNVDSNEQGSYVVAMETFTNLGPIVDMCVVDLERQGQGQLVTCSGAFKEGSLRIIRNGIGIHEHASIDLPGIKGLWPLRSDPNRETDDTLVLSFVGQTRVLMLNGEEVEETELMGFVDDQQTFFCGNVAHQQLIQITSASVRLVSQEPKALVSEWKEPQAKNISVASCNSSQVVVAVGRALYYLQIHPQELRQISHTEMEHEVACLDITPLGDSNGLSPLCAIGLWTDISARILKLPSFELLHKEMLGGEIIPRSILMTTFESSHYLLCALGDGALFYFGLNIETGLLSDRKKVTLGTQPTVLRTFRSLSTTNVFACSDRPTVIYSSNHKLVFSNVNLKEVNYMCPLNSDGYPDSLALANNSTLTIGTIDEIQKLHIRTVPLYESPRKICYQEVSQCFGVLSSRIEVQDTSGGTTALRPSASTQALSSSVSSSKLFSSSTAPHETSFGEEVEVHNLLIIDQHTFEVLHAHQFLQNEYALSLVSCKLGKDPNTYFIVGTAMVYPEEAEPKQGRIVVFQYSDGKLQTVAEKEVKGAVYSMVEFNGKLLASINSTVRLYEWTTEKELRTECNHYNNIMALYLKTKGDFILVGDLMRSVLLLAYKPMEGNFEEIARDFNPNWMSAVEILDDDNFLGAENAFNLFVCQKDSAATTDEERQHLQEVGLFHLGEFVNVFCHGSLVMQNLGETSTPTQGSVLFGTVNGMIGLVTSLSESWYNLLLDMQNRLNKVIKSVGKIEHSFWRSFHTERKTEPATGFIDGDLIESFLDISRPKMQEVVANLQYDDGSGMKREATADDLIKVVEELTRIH
Define the label as Satisfied when 293T-LentiX WEE1-ePL Degradation 4 hr YMin (%) is strictly less than 30% and as Not satisfied in all remaining cases.

Examples with answers:
[[record]]
compound = "O=C1CC[C@H](N2Cc3cc(O[C@@H]4CN(Cc5cc(F)c6nc(C7CCOCC7)ccc6c5)C[C@H]4CO)ccc3C2=O)C(=O)N1"
group_label = "Satisfied"

[[record]]
compound = "COC[C@@H]1CN(Cc2cc(F)c3nc(N4C[C@H]5CCO[C@H]5C4)ncc3c2)C[C@H]1Oc1ccc2c(c1)CN([C@H]1CCC(=O)NC1=O)C2=O (single isomer, unassigned)"
group_label = "Satisfied"


INPUT: Would you kindly verify if 293T-LentiX WEE1-ePL Degradation 4 hr YMin (%) of COC[C@H]1CN(Cc2cc(F)c3nc(C4CCOCC4)ccc3c2)C[C@H]1Oc1ccc2c(c1)CN([C@H]1CCC(=O)NC1=O)C2=O is strictly less than 30%?
OUTPUT: Not satisfied
